Experimental System: sLFA-1/ICAM-1 (Homo sapiens, UniProt P05107+P20701, DEL701-769)
Sequence (P20701 26-1090 limits assumed, stated change not applied): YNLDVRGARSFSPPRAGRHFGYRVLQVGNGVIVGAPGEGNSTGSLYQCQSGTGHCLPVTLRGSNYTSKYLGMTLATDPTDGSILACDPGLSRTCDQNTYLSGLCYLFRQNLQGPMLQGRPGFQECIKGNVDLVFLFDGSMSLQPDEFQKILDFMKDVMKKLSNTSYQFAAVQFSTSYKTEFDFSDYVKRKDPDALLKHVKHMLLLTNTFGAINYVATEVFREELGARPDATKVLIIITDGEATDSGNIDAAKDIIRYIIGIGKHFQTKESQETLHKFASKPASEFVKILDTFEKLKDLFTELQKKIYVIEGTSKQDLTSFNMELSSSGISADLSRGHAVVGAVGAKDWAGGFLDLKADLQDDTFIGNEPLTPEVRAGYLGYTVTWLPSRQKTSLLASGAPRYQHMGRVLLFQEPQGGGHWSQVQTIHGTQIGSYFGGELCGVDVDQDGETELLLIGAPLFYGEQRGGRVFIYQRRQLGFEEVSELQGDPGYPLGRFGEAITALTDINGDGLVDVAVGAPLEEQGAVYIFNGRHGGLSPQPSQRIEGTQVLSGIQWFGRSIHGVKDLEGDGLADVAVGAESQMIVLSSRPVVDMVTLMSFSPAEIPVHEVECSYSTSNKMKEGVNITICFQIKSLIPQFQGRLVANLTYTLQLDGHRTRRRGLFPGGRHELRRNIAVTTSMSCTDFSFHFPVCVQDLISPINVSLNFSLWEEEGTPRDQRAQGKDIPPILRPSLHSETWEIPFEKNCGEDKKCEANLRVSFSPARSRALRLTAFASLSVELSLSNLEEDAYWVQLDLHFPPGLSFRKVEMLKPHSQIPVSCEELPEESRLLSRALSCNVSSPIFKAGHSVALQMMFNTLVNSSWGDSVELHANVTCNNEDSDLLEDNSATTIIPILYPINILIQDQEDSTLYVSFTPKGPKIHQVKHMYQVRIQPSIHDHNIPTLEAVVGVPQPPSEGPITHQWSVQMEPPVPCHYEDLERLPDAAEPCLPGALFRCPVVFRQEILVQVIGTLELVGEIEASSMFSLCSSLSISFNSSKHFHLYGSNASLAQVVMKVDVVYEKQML
Sequence (P05107 23-700 limits assumed, stated change not applied): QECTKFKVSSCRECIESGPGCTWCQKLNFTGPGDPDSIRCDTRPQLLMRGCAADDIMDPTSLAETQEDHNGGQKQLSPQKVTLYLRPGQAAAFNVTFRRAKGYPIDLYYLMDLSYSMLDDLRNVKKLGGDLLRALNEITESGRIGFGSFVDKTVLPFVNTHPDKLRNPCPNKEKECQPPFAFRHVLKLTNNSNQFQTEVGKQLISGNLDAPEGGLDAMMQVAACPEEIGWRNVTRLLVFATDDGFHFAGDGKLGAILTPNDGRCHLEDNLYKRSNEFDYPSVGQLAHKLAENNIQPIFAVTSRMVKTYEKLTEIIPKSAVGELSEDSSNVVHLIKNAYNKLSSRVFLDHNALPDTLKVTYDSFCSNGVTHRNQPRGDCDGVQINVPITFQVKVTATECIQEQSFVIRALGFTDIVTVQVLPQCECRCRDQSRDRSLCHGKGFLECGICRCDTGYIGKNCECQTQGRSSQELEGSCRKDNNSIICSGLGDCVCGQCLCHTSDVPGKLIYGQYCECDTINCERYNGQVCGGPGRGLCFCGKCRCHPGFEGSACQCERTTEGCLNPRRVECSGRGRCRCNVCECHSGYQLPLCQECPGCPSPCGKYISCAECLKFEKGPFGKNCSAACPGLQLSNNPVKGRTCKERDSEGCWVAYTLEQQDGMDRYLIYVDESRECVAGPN
Experiment: sLFA-1/ICAM-1 ELISA
Format: binding
Condition: sLFA-1 coated plates, 5dICAM-Fc binding, ELISA; read-out: LFA-1/ICAM (IC50)
Would you mind telling me the reported pIC50 of each entry?
Convention used: pIC50 is expressed as -log10 of the molar concentration.

Give the measured pIC50 of Cc1nc(NC2CCc3cc(O)ccc3C2)nc(C)c1C(=O)N[C@@H](CNC(=O)c1cccs1)C(=O)O (stereo partly shown) [Example 17] .
6.51

Give the measured pIC50 of Cc1nc(NCCCc2cccc(O)c2)nc(C)c1C(=O)N[C@@H](CNC(=O)OCc1ccccc1)C(=O)O [Example 111] .
7.25

Give the measured pIC50 of Cc1nc(NCCCc2cccc(O)c2)nc(C)c1C(=O)N[C@@H](CNC(=O)c1ccc(Cl)s1)C(=O)O [Example 95] .
6.58

Give the measured pIC50 of Cc1nc(NC/C=C\c2cccc(O)c2)nc(C)c1C(=O)N[C@@H](CNC(=O)c1cccs1)C(=O)O [Example 73] .
7.25

###

Experimental System: Mac-1/ICAM-1 (Homo sapiens, UniProt P05107+P11215)
Sequence (P05107 23-769, other chains not shown): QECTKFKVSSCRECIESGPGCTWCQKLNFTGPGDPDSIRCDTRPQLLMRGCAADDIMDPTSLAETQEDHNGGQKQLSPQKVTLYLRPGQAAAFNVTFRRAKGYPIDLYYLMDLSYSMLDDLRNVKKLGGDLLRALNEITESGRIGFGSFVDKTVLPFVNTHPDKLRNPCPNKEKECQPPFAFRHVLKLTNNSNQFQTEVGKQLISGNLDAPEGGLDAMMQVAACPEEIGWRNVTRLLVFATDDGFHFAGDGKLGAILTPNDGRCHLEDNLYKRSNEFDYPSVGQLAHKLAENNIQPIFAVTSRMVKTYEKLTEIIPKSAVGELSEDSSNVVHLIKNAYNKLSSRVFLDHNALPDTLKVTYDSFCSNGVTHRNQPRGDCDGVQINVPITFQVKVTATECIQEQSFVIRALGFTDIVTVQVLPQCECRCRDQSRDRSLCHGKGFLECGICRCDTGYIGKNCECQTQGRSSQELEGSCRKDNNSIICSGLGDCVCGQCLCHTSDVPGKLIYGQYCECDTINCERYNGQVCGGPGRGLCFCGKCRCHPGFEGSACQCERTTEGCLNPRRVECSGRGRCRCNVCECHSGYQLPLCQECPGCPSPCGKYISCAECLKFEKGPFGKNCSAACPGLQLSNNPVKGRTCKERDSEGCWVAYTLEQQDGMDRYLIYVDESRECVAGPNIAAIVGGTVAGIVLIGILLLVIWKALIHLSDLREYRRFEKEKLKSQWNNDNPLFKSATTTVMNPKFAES
Experiment: Mac-1/ICAM-1 ELISA
Condition: Mac-1 coated plates, 5dICAM-Fc binding
Categorize each record by its IC50 using low bracket (below 40 nM), middle bracket (40 nM to below 60 nM), high bracket (60 nM or more)

Category of `Cc1nc(NCCCc2cccc(O)c2)nc(C)c1C(=O)N[C@@H](CNC(=O)c1cccc(O)c1)C(=O)O` , please.
low bracket

Category of `Cc1nc(NCCCc2cccc(O)c2)nc(C)c1C(=O)N[C@@H](CNC(=O)c1cccs1)C(=O)O` , please.
high bracket

Category of `Cc1nc(NCCCc2cccc3[nH]ncc23)nc(C)c1C(=O)N[C@@H](CNC(=O)c1cccs1)C(=O)O` , please.
low bracket

Category of `Cc1nc(NCC#Cc2cccc(O)c2)nc(C)c1C(=O)N[C@@H](CNC(=O)c1cccs1)C(=O)O` , please.
middle bracket

Category of `Cc1nc(OCCCc2cccc(O)c2)nc(C)c1C(=O)N[C@@H](CNC(=O)c1cccs1)C(=O)O` , please.
middle bracket

Category of `Cc1nc(NCCCc2cc(O)cc(F)c2)nc(C)c1C(=O)N[C@@H](CNC(=O)c1cccs1)C(=O)O` , please.
low bracket

Category of `Cc1nc(NCCCc2ccc3cn[nH]c3c2)nc(C)c1C(=O)N[C@@H](CNC(=O)c1cccs1)C(=O)O` , please.
high bracket

Category of `Cc1nc(CCCCc2cccc(O)c2)nc(C)c1C(=O)N[C@@H](CNC(=O)c1cccs1)C(=O)O` , please.
high bracket

Category of `Cc1nc(NCC#Cc2cccc3[nH]ncc23)nc(C)c1C(=O)N[C@@H](CNC(=O)c1cccs1)C(=O)O` , please.
middle bracket

###

Experimental System: sLFA-1/ICAM-1 (Homo sapiens, UniProt P05107+P20701, DEL701-769)
Experiment: sLFA-1/ICAM-1 ELISA
Format: binding
Condition: sLFA-1 coated plates, 5dICAM-Fc binding, ELISA; read-out: LFA-1/ICAM (IC50)
Property Label: IC50 (nM)
Value expressed in nM; do not type the unit.

// lookup IC50 | system=sLFA-1/ICAM-1 (Homo sapiens, UniProt P05107+P20701, DEL701-769) | key= `Cc1nc(NC/C=C/c2cccc(O)c2)nc(C)c1C(=O)N[C@@H](CNC(=O)c1cccs1)C(=O)O`
152

// lookup IC50 | system=sLFA-1/ICAM-1 (Homo sapiens, UniProt P05107+P20701, DEL701-769) | key= Cc1nc(NCCCc2cccc(O)c2)nc(C)c1C(=O)N[C@@H](CNC(=O)c1csc(-c2ccncc2)n1)C(=O)O [Example 47]
70

// lookup IC50 | system=sLFA-1/ICAM-1 (Homo sapiens, UniProt P05107+P20701, DEL701-769) | key= `Cc1nc(C)c(C(=O)NC[C@H](NC(=O)c2c(C)nc(NCCCc3cccc(O)c3)nc2C)C(=O)O)s1`
128

// lookup IC50 | system=sLFA-1/ICAM-1 (Homo sapiens, UniProt P05107+P20701, DEL701-769) | key= `Cc1csc(C(=O)NC[C@H](NC(=O)c2c(C)nc(NCCCc3cccc(O)c3)nc2C)C(=O)O)c1`
78

// lookup IC50 | system=sLFA-1/ICAM-1 (Homo sapiens, UniProt P05107+P20701, DEL701-769) | key= `Cc1ccc(O)cc1CCCNc1nc(C)c(C(=O)N[C@@H](CNC(=O)c2cccs2)C(=O)O)c(C)n1`
159

###

Experimental System: sLFA-1/ICAM-1 (Homo sapiens, UniProt P05107+P20701, DEL701-769)
Experiment: sLFA-1/ICAM-1 ELISA
Format: binding
Condition: sLFA-1 coated plates, 5dICAM-Fc binding, ELISA; read-out: LFA-1/ICAM (IC50)
Would you mind telling me the reported IC50 of each entry?
Value expressed in nM; do not type the unit.

Give the measured IC50 of `Cc1nc(NCCCc2cccc(O)c2)nc(C)c1C(=O)N[C@@H](CNC(=O)CC1CCCCC1)C(=O)O` .
115

Give the measured IC50 of `Cc1nc(NCC#Cc2cccc3[nH]ncc23)nc(C)c1C(=O)N[C@@H](CNC(=O)c1cccs1)C(=O)O` .
80

Give the measured IC50 of `CCc1nc(NCCCc2cccc(O)c2)nc(CC)c1C(=O)N[C@@H](CNC(=O)c1cccs1)C(=O)O` .
90

Give the measured IC50 of `Cc1nc(NCCCc2cccc(O)c2)nc(C)c1C(=O)N[C@@H](CNC(=O)N(C)C)C(=O)O` .
74

Give the measured IC50 of `Cc1nc(NCCCc2cccc(O)c2)nc(C)c1C(=O)N[C@@H](CNC(=O)c1sccc1Cl)C(=O)O` .
66

Give the measured IC50 of `Cc1nc(NCCCc2cccc(O)c2)nc(C)c1C(=O)N[C@@H](CNC(=O)c1ccccn1)C(=O)O` .
85

Give the measured IC50 of `Cc1nc(NCCCc2cccc(O)c2C)nc(C)c1C(=O)N[C@@H](CNC(=O)c1cccs1)C(=O)O` .
111

Give the measured IC50 of `CCc1ccc(C(=O)NC[C@H](NC(=O)c2c(C)nc(NCCCc3cccc(O)c3)nc2C)C(=O)O)s1` .
103

Give the measured IC50 of `CC(=O)NC[C@H](NC(=O)c1c(C)nc(NCCCc2cccc3[nH]ncc23)nc1C)C(=O)O` .
120

Give the measured IC50 of `O=C(N[C@@H](CNC(=O)c1cccs1)C(=O)O)c1cnc(NCCCc2cccc(O)c2)nc1` .
64

Give the measured IC50 of `Cc1nc(CCCCc2cccc(O)c2)nc(C)c1C(=O)N[C@@H](CNC(=O)c1cccs1)C(=O)O` .
73

Give the measured IC50 of `Cc1nc(NCCCc2cccc(O)c2)nc(C)c1C(=O)N[C@@H](CNC(=O)c1nccc2ccccc12)C(=O)O` .
87
